assay: chemical genetic growth profiling, strain panel (AID 1159580);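 note: tested at 20 µM; growth read once vehicle control cultures reached saturation at 30 °C; 1 = growth at the plate median or of vehicle wells; lower values mean less growth of the strain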; settings: S. cerevisiae deletion strains, growth OD, locus YKL101W, strain HSL1, hits give low values
Among all 5,500 compounds or so, about 2,000 (36%) were called active. Roughly 18% stayed inconclusive and do not appear here. This is one part of the list.

{"Smiles text": "O=C(NNC(=S)Nc1ccc(Cl)cc1)c1ncc(C(F)(F)F)cc1Cl", "normalized growth": 0.926}
{"Smiles text": "O=C(Nc1cc2c(s1)-c1cc(Cl)ccc1SC2)Oc1ccccc1", "normalized growth": 0.953}
{"Smiles text": "CC(C)(C)c1ccc(C(=O)NNC(=S)Nc2ccc(Cl)cc2)cc1", "normalized growth": 0.91}
{"Smiles text": "Cc1ccc(OCc2n[nH]c(=S)n2Cc2ccccc2)c2c1CCC2", "normalized growth": 0.722}
{"Smiles text": "CC(C)(C)C(=O)c1sc2sc(C(=O)C(C)(C)C)c(N)c2c1N", "normalized growth": 0.962}
{"Smiles text": "CSc1nnc(COc2ccc(C)c3c2CCC3)n1-c1ccccc1", "normalized growth": 0.964}
{"Smiles text": "S=C(Nc1ccc(Cl)cc1)Nc1ccc(Cl)cc1", "normalized growth": 0.888}

* * *

experiment: chemical genetic growth profiling, strain panel (AID 1159580); settings: S. cerevisiae deletion strains, growth OD, locus YKL068W, hits give low values
About 2,000 (36%) of roughly 5,500 compounds were called active. Inconclusive results (about 18%) are left out. This is one part of the list.

{"Compound": "C=C(C)[C@H]1Cc2c(ccc3c2O[C@@H]2COc4cc(OC)c(OC)cc4[C@@H]2C3=O)O1", "normalized growth": 1}
{"Compound": "COc1cc2c(cc1OC)-c1c(oc3c4c(ccc3c1=O)OC(C(C)C)C4)CO2 (stereo not given)", "normalized growth": 0.98}
{"Compound": "O=c1[nH]cnc2c1ncn2C1O[C@H](CO)[C@@H](O)[C@H]1O (stereo not given in full)", "normalized growth": 1.01}
{"Compound": "CC(=O)OC1CCC2(C)C3CC(=O)C4(C)C(CC5OC6(CCC(C)CO6)[C@@H](C)C54)C3CC[C@H]2C1 (stereo not given in full)", "normalized growth": 0.981}
{"Compound": "CC(=O)O[C@H]1CC[C@]2(C)C3CC[C@@]4(C)C(CC5O[C@@]6(CCC(C)CO6)[C@@H](C)C54)C3CC[C@H]2C1 (stereo not given in full)", "normalized growth": 0.979}

* * *

assay: chemical genetic growth profiling, strain panel (AID 1159580);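 note: tested at 20 µM; growth read once vehicle control cultures reached saturation at 30 °C; 1 = growth at the plate median or of vehicle wells; lower values mean less growth of the strain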; settings: S. cerevisiae deletion strains, growth OD, locus YHR142W, strain chs7, hits give low values
In all, about 5,500 compounds went through this assay and about 2,000 (36%) were called active. Roughly 18% stayed inconclusive and do not appear here. Some of the results follow.
Binarize normalized growth at 1; below is TRUE, at or above is FALSE.

{"Molecule": "O=C(NC1CCCCC1)NC1CCCCC1", "Class label": "TRUE"}
{"Molecule": "C1CCC(C(CC2CCCCN2)C2CCCCC2)CC1 (stereo not given)", "Class label": "TRUE"}
{"Molecule": "NC1C[C@H]1c1ccccc1 (stereo not given in full)", "Class label": "TRUE"}
{"Molecule": "O=C(OC[C@H]1O[C@H](OC(=O)c2cc(O)c(O)c(OC(=O)c3cc(O)c(O)c(O)c3)c2)[C@H](OC(=O)c2cc(O)c(O)c(OC(=O)c3cc(O)c(O)c(O)c3)c2)[C@@H](OC(=O)c2cc(O)c(O)c(OC(=O)c3cc(O)c(O)c(O)c3)c2)[C@@H]1OC(=O)c1cc(O)c(O)c(OC(=O)c2cc(O)c(O)c(O)c2)c1)c1cc(O)c(O)c(OC(=O)c2cc(O)c(O)c(O)c2)c1", "Class label": "TRUE"}
{"Molecule": "CC(NCCC(c1ccccc1)c1ccccc1)c1ccccc1 (stereo not given)", "Class label": "TRUE"}
{"Molecule": "COC1(C)CCC2OC2(C)CCC2C1CC2(C)C (stereo not given)", "Class label": "FALSE"}
{"Molecule": "CNS(=O)(=O)Cc1ccc2[nH]cc(CCN(C)C)c2c1", "Class label": "FALSE"}
{"Molecule": "CCC1(CC)C(=O)C=CNC1=O", "Class label": "TRUE"}

* * *

test: chemical genetic growth profiling, strain panel (AID 1159580);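 note: tested at 20 µM; growth read once vehicle control cultures reached saturation at 30 °C; 1 = growth at the plate median or of vehicle wells; lower values mean less growth of the strain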; conditions: S. cerevisiae deletion strains, growth OD, locus YMR129W, hits give low values
Among all 5,500 compounds or so, about 2,000 (36%) were called active. Roughly 18% stayed inconclusive and do not appear here. Some of the results follow.

{"Smiles text": "O=C(OC[C@H]1O[C@H](OC(=O)c2cc(O)c(O)c(OC(=O)c3cc(O)c(O)c(O)c3)c2)[C@H](OC(=O)c2cc(O)c(O)c(OC(=O)c3cc(O)c(O)c(O)c3)c2)[C@@H](OC(=O)c2cc(O)c(O)c(OC(=O)c3cc(O)c(O)c(O)c3)c2)[C@@H]1OC(=O)c1cc(O)c(O)c(OC(=O)c2cc(O)c(O)c(O)c2)c1)c1cc(O)c(O)c(OC(=O)c2cc(O)c(O)c(O)c2)c1", "normalized growth": 0.921}
{"Smiles text": "CCC1(CC)C(=O)C=CNC1=O", "normalized growth": 0.991}
{"Smiles text": "NC[C@H]1O[C@H](O[C@H]2[C@H](O)[C@@H](O[C@H]3O[C@H](CO)[C@@H](O)[C@H](N)[C@H]3O)[C@H](N)C[C@@H]2N)[C@H](N)C[C@@H]1O", "normalized growth": 1.01}

* * *

assay: chemical genetic growth profiling, strain panel (AID 1159580);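 note: tested at 20 µM; growth read once vehicle control cultures reached saturation at 30 °C; 1 = growth at the plate median or of vehicle wells; lower values mean less growth of the strain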; settings: S. cerevisiae deletion strains, growth OD, locus YPR163C, strain tif3
Out of some 5,500 compounds screened, about 2,000 (36%) were called active. Another 18% or so got no clear call; they are omitted. Rule as the data show it: active = normalized growth mostly below about 0.91 (no sharp cut-off); inconclusive = no clear call, values can overlap the other calls; inactive = mostly above about 0.92. This is one part of the list. Where a SMILES comes first, the peptide text is derived from it. Side-chain parts run from the residue outwards. [ ]: non-standard residue; d: D form. The star is where a group is joined. X1 = CCC(C)C(N)C1=NC(C(=O)*)CS1; Orn = NCCC[CH](N)C(=O)O
Possible outcomes: active, inactive

{"Molecule": "CN(C)CCc1c[nH]c2ccc(CS(=O)(=O)N3CCCC3)cc12", "Class label": "inactive"}
{"Molecule": "COc1c2ccoc2cc2oc(C)cc(=O)c12", "Class label": "inactive"}
{"Molecule": "CC(C)CC1NC(=O)C(CCCN)NC(=O)C(C(C)C)NC(=O)C2CCCN2C(=O)C(Cc2ccccc2)NC(=O)C(CC(C)C)NC(=O)C(CCCN)NC(=O)C(C(C)C)NC(=O)C2CCCN2C(=O)C(Cc2ccccc2)NC1=O (configuration not stated) (cyclo(FPV[Orn]LFPV[Orn]L); configuration not given here)", "Class label": "inactive"}
{"Molecule": "COc1cccc(OC)c1C(=O)N[C@@H]1C(=O)N2[C@@H]1SC(C)(C)[C@@H]2C(=O)O", "Class label": "inactive"}
{"Molecule": "COc1cnc(NS(=O)(=O)c2ccc(N)cc2)nc1", "Class label": "inactive"}
{"Molecule": "CN1C(=O)CCS(=O)(=O)C1c1ccc(Cl)cc1 (configuration not stated)", "Class label": "inactive"}
{"Molecule": "CC[C@H]1CN2CCc3cc(OC)c(OC)cc3C2C[C@@H]1CC1NCCc2cc(OC)c(OC)cc21 (some centres not stated)", "Class label": "inactive"}
{"Molecule": "CC1(C)C(=O)[C@@H]2C[C@@]3(O)C4=CC(=O)O[C@@H](c5ccoc5)[C@]4(C)CCC3[C@@](C)(C2=O)[C@H]1CC(=O)O (some centres not stated)", "Class label": "inactive"}
{"Molecule": "CC(=O)OCC(=O)[C@@]1(O)CCC2C3CC[C@@H]4C[C@H](OC(C)=O)CC[C@]4(C)C3C(=O)C[C@@]21C (some centres not stated)", "Class label": "inactive"}
{"Molecule": "CN1CCN(CC(=O)N2c3ccccc3C(=O)Nc3cccnc32)CC1", "Class label": "inactive"}
{"Molecule": "CC(=O)Oc1cc2c(c(C)c1OC(C)=O)CC1OC13C2(C)CCC1(C)C2CC(C)(C(=O)O)CCC2(C)CCC13C (configuration not stated)", "Class label": "inactive"}
{"Molecule": "CC1=NN(c2ccccc2)C(=O)C1", "Class label": "inactive"}
{"Molecule": "NC(N)=NC(N)=Nc1ccccc1", "Class label": "inactive"}
{"Molecule": "CC(=O)O[C@H]1CC[C@]2(C)C3CC[C@@]4(C)C(CC5O[C@@]6(CCC(C)CO6)[C@@H](C)C54)C3CC[C@H]2C1 (some centres not stated)", "Class label": "inactive"}
{"Molecule": "CO[C@@]1(NC(=O)Cc2cccs2)C(=O)N2C(C(=O)O)=C(COC(N)=O)CS[C@@H]21", "Class label": "inactive"}
{"Molecule": "COC(=O)C[C@H]1C(C)(C)[C@@H](O)[C@@H]2CC3=C4C=C(OC)O[C@@H](c5ccoc5)[C@]4(C)CCC3[C@@]1(C)C2=O (some centres not stated)", "Class label": "inactive"}
{"Molecule": "NC(=O)NO", "Class label": "inactive"}
{"Molecule": "CC(=O)OC1CCC2(C)C3CC(=O)C4(C)C(CC5OC6(CCC(C)CO6)[C@@H](C)C54)C3CC[C@H]2C1 (some centres not stated)", "Class label": "inactive"}
{"Molecule": "COc1c2c(cc3c1OCO3)C13C=C[C@H](OC)CC1N(C2)CC3O (some centres not stated)", "Class label": "inactive"}
{"Molecule": "CCC(C)C(N)C1=NC(C(=O)NC(CC(C)C)C(=O)NC(CCC(=O)O)C(=O)NC(C(=O)NCCCCC2NC(=O)C(CC(N)=O)NC(=O)C(CC(=O)O)NC(=O)C(Cc3cnc[nH]3)NC(=O)C(Cc3ccccc3)NC(=O)C(C(C)CC)NC(=O)C(CCCN)NC2=O)C(C)CC)CS1 (stereo not drawn) (cyclo(DNK([Ile-Glu-Leu-X1])[Orn]IFH); configuration not given here)", "Class label": "inactive"}
{"Molecule": "c1ccc([C@H]2CN3CCSC3=N2)cc1", "Class label": "inactive"}
{"Molecule": "CC(=O)Oc1cccc(C(=O)O)c1OC(C)=O", "Class label": "inactive"}
{"Molecule": "C=C(C)[C@@H]1CC[C@]2(CO)CC[C@]3(C)[C@H](CCC4[C@@]5(C)CC[C@H](O)C(C)(C)C5CC[C@]43C)C12 (some centres not stated)", "Class label": "inactive"}
{"Molecule": "CC[C@H]1OC(=O)[C@H](C)[C@@H](O[C@H]2C[C@@](C)(OC)[C@@H](O)[C@H](C)O2)[C@H](C)[C@@H](O[C@@H]2O[C@H](C)C[C@H](N(C)C)[C@H]2O)[C@](C)(O)C[C@@H](C)[C@@H]2N[C@@H](COCCOC)O[C@H]([C@H]2C)[C@]1(C)O", "Class label": "inactive"}
{"Molecule": "CC(=O)N[C@@H](Cc1c[nH]c2ccccc12)C(=O)O", "Class label": "inactive"}
{"Molecule": "CC(N)C(O)c1ccc(O)c(O)c1 (configuration not stated)", "Class label": "inactive"}
{"Molecule": "O=c1[nH]cnc2c1ncn2C1O[C@H](CO)[C@@H](O)[C@H]1O (some centres not stated)", "Class label": "inactive"}
{"Molecule": "COc1ccc2c(=O)ccoc2c1", "Class label": "inactive"}
{"Molecule": "O=C(OC[C@H]1O[C@H](OC(=O)c2cc(O)c(O)c(OC(=O)c3cc(O)c(O)c(O)c3)c2)[C@H](OC(=O)c2cc(O)c(O)c(OC(=O)c3cc(O)c(O)c(O)c3)c2)[C@@H](OC(=O)c2cc(O)c(O)c(OC(=O)c3cc(O)c(O)c(O)c3)c2)[C@@H]1OC(=O)c1cc(O)c(O)c(OC(=O)c2cc(O)c(O)c(O)c2)c1)c1cc(O)c(O)c(OC(=O)c2cc(O)c(O)c(O)c2)c1", "Class label": "active"}
{"Molecule": "CC(NCCC(c1ccccc1)c1ccccc1)c1ccccc1 (configuration not stated)", "Class label": "active"}
{"Molecule": "CC(=O)O[C@H]1CC[C@]2(C)C3CC(=O)[C@]4(C)C(C(C)=O)=CCC4C3CC[C@H]2C1 (some centres not stated)", "Class label": "inactive"}
{"Molecule": "CC(=O)[C@@]1(O)CCC2C3CCC4=CC(=O)CC[C@]4(C)C3CC[C@@]21C (some centres not stated)", "Class label": "inactive"}
